Source of measurements: patent US20230072683A1

# TESTED TARGET: DNA-PK(h) (Homo sapiens, UniProt P78527)
# PROTOCOL SUMMARY: Evaluation of inhibitory activity against DNA-PK (HTRF kinase assay, GST-cMyc-p53 substrate)
# Format: biochemical
# CONDITION NOTES: compound concentration 0.01 μM; read-out: EXP_VALUE(% Inhibition) DNA-PK(h) 0.01 μM
REPORTED ENDPOINT: inhibition at 0.01 µM (%)

| STRUCTURE NOTATION | REPORTED ENDPOINT | ENDPOINT RESULT |
| --- | --- | --- |
| COc1ccc(-c2cccc3c(Cl)c([C@H](C)Nc4ncnc5[nH]ccc(=O)c45)n(-c4ccccc4)c(=O)c23)nc1 | inhibition at 0.01 µM | 79 |
| Cc1cc(-c2cccc3c(Cl)c([C@H](C)Nc4ncnc5[nH]ccc(=O)c45)n(-c4ccccc4)c(=O)c23)cc(C)c1O | inhibition at 0.01 µM | 70 |
| C[C@H](Nc1ncnc2[nH]ccc(=O)c12)c1c(Cl)c2cccc(-c3cccc(N4CCOCC4)c3)c2c(=O)n1-c1ccccc1 | inhibition at 0.01 µM | 86 |

* * *

# TESTED TARGET: PI3K-δ (PI3K(p1108/p857) (h)) (Homo sapiens)
# Sequence (O00329 whole entry): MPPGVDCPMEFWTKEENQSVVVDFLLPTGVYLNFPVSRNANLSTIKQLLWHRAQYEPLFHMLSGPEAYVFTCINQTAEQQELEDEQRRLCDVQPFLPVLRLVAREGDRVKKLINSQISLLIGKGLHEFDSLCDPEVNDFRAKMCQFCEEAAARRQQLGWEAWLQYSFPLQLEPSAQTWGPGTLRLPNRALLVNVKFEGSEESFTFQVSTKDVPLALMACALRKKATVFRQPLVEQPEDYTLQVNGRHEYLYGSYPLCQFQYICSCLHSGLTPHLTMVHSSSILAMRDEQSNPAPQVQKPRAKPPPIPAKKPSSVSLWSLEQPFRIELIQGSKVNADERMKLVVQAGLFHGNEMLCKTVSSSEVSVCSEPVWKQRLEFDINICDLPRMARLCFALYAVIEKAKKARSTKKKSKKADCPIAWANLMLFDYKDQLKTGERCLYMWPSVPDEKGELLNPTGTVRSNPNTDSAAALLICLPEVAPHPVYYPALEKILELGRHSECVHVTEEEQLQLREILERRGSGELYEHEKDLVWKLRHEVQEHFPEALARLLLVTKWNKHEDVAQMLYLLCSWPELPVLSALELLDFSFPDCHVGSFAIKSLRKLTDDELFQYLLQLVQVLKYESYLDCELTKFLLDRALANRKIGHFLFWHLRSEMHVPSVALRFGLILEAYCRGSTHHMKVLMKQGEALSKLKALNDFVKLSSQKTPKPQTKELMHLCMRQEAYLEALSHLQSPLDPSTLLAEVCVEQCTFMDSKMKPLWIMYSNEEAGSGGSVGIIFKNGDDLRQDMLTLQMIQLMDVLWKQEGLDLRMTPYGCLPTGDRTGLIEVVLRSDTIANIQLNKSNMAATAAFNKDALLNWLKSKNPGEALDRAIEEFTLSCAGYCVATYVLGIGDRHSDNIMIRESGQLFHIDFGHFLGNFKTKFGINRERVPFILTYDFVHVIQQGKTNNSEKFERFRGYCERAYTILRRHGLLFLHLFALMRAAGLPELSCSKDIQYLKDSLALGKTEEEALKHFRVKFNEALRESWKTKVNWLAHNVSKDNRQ
# Sequence (P27986 whole entry partner): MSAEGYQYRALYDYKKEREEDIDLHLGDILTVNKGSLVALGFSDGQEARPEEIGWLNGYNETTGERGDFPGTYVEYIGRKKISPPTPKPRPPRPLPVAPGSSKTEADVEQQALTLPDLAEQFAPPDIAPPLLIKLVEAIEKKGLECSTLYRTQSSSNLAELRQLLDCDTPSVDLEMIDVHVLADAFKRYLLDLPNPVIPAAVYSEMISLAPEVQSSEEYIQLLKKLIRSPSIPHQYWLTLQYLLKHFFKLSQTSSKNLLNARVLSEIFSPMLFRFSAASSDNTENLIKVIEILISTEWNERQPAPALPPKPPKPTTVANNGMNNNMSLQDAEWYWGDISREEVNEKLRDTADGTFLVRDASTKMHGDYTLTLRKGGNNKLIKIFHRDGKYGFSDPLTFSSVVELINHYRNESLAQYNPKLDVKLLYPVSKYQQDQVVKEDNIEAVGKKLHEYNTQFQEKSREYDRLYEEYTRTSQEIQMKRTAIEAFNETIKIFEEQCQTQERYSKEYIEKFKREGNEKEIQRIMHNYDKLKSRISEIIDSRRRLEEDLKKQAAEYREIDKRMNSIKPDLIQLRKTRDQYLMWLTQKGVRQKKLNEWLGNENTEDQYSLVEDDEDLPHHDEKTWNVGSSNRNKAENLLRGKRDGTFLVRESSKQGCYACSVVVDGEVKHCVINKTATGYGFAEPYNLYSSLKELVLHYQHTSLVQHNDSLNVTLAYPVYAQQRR
# PROTOCOL SUMMARY: Evaluation of inhibitory activity against PI3K-δ (HTRF kinase assay)
# Assay type: biochemical
# CONDITION NOTES: compound concentration 0.01 μM; read-out: EXP_VALUE(% Inhibition) PI3K-δ 0.01 μM
REPORTED ENDPOINT: inhibition at 0.01 µM (%)

| COMPOUND | inhibition at 0.01 µM / % |
| --- | --- |
| Cc1ccc(F)cc1-c1cccc2c(Cl)c([C@H](C)Nc3ncnc4[nH]ccc(=O)c34)n(-c3ccccc3)c(=O)c12 [Example 127] | 89 |
| CCOc1ncc(-c2cccc3c(Cl)c([C@H](C)Nc4ncnc5[nH]ccc(=O)c45)n(-c4ccccc4)c(=O)c23)cn1 [Example 188] | 101 |
| Cc1nc(-c2ccc(-c3cccc4c(Cl)c([C@H](C)Nc5ncnc6[nH]ccc(=O)c56)n(-c5ccccc5)c(=O)c34)cc2)no1 [Example 160] | 94 |
| C[C@H](Nc1ncnc2[nH]ccc(=O)c12)c1c(Cl)c2cccc(Sc3ccncc3)c2c(=O)n1-c1ccccc1 [Example 370] | 69 |
| C[C@H](Nc1ncnc2[nH]ccc(=O)c12)c1c(Cl)c2cccc(-c3nnn[nH]3)c2c(=O)n1-c1ccccc1 [Example 352] | 27 |

P = COc1ccc(-c2cccc3c(Cl)c([C@H](C)Nc4ncnc5[nH]ccc(=O)c45)n(-c4ccccc4)c(=O)c23)nc1 [Example 41]
Q = C[C@H](Nc1ncnc2[nH]ccc(=O)c12)c1c(Cl)c2cccc(NCCc3ccc(Cl)cc3)c2c(=O)n1-c1ccccc1 [Example 335]
Recorded inhibition at 0.01 µM values differ for P and Q ; which one is higher? # answer = label of selected item
P

I = Cc1ncccc1-c1cccc2c(Cl)c([C@H](C)Nc3ncnc4[nH]ccc(=O)c34)n(-c3ccccc3)c(=O)c12 [Example 110]
II = C[C@H](Nc1ncnc2[nH]ccc(=O)c12)c1c(Cl)c2cccc(N3CCC[C@H]3CN3CCCC3)c2c(=O)n1-c1ccccc1 [Example 338]
III = C[C@H](Nc1ncnc2[nH]ccc(=O)c12)c1c(Cl)c2cccc(N3CC4CCCC4C3)c2c(=O)n1-c1ccccc1 (stereo partly shown) [Example 342]
IV = C[C@H](Nc1ncnc2[nH]ccc(=O)c12)c1c(Cl)c2cccc(-c3cccc4[nH]ccc34)c2c(=O)n1-c1ccccc1 [Example 89]
Order the 4 compounds from highest to lowest inhibition at 0.01 µM. Labels, requested order.
I, IV, III, II

* * *

# TESTED TARGET: DNA-PK(h) (Homo sapiens, UniProt P78527)
# PROTOCOL SUMMARY: Evaluation of inhibitory activity against DNA-PK (HTRF kinase assay, GST-cMyc-p53 substrate)
# Type: biochemical
# CONDITION NOTES: compound concentration 0.01 μM; read-out: EXP_VALUE(% Inhibition) DNA-PK(h) 0.01 μM
# Procedure: <Experimental Example 2> Evaluation of Inhibitory Activity Properties Against DNA-PK […] DNA-PK(h) was subjected to an isothermal treatment in an assay buffer comprising […] GST-cMyc-p53 and Mg/ATP (at a concentration as required). […] A plate was read in a time-resolved fluorescence mode and a homogeneous time-resolved fluorescence (HTRF) signal was determined according to HTRF=10000×(Em 665 nm/Em 620 nm).
REPORTED ENDPOINT: inhibition at 0.01 µM (%)

| STRUCTURE NOTATION | VALUE UNITS | inhibition at 0.01 µM |
| --- | --- | --- |
| C[C@H](Nc1ncnc2[nH]ccc(=O)c12)c1c(Cl)c2cccc(-c3cccc(CC#N)c3)c2c(=O)n1-c1ccccc1 | % | 77 |
| C[C@H](Nc1ncnc2[nH]ccc(=O)c12)c1c(Cl)c2cccc(-c3cnc4ccccc4c3)c2c(=O)n1-c1ccccc1 | % | 69 |
| C[C@H](Nc1ncnc2[nH]ccc(=O)c12)c1c(Cl)c2cccc(-c3ccccc3F)c2c(=O)n1-c1ccccc1 | % | 61 |
| C[C@H](Nc1ncnc2[nH]ccc(=O)c12)c1c(Cl)c2cccc(CN3CCOCC3)c2c(=O)n1-c1ccccc1 | % | 43 |
| COc1cnc(-c2cccc3c(Cl)c([C@H](C)Nc4ncnc5[nH]ccc(=O)c45)n(-c4ccccc4)c(=O)c23)nc1 | % | 101 |

1 = C[C@H](Nc1ncnc2[nH]ccc(=O)c12)c1c(Cl)c2cccc(-c3cc4[nH]ncc4cn3)c2c(=O)n1-c1ccccc1
2 = C[C@H](Nc1ncnc2[nH]ccc(=O)c12)c1c(Cl)c2cccc(NCc3ccccc3)c2c(=O)n1-c1ccccc1
3 = C[C@H](Nc1ncnc2[nH]ccc(=O)c12)c1c(Cl)c2cccc(NC(=O)C(C)(C)C)c2c(=O)n1-c1ccccc1
4 = C[C@H](Nc1ncnc2[nH]ccc(=O)c12)c1c(Cl)c2cccc(-c3nc(N)nc(N)n3)c2c(=O)n1-c1ccccc1
5 = C[C@H](Nc1ncnc2[nH]ccc(=O)c12)c1c(Cl)c2cccc(C(=O)NCc3ccccc3)c2c(=O)n1-c1ccccc1
Put the compounds in ascending order of inhibition at 0.01 µM. Labels, ranked as asked.
4, 2, 5, 1, 3
(4: 1%, 2: 10%, 5: 15%, 1: 34%, 3: 56%)

I = C[C@H](Nc1ncnc2[nH]ccc(=O)c12)c1c(Cl)c2cccc(NCc3cccnc3)c2c(=O)n1-c1ccccc1
II = Cc1ccc(-c2cccc3c(Cl)c([C@H](C)Nc4ncnc5[nH]ccc(=O)c45)n(-c4ccccc4)c(=O)c23)cn1
III = COc1ncc(-c2cccc3c(Cl)c([C@H](C)Nc4ncnc5[nH]ccc(=O)c45)n(-c4ccccc4)c(=O)c23)cc1Cl
IV = C[C@H](Nc1ncnc2[nH]ccc(=O)c12)c1c(Cl)c2cccc(N(C)C3CCCCC3)c2c(=O)n1-c1ccccc1
List items by inhibition at 0.01 µM in falling order. Reply format: the labels, ordered as requested.
II, III, I, IV
(II: 75%, III: 45%, I: 30%, IV: -11%)

* * *

# TESTED TARGET: PI3K-δ (PI3K(p1108/p857) (h)) (Homo sapiens)
# PROTOCOL SUMMARY: Evaluation of inhibitory activity against PI3K-δ (HTRF kinase assay)
# Assay type: biochemical
# CONDITION NOTES: compound concentration 0.01 μM; read-out: EXP_VALUE(% Inhibition) PI3K-δ 0.01 μM
REPORTED ENDPOINT: inhibition at 0.01 µM (%)

| STRUCTURE NOTATION | VALUE UNITS | ENDPOINT RESULT |
| --- | --- | --- |
| C[C@H](Nc1ncnc2[nH]ccc(=O)c12)c1c(Cl)c2cccc(-c3cn[nH]c3)c2c(=O)n1-c1ccccc1 | % | 93 |
| Cc1cncc(-c2cccc3c(Cl)c([C@H](C)Nc4ncnc5[nH]ccc(=O)c45)n(-c4ccccc4)c(=O)c23)c1 | % | 84 |
| C[C@H](Nc1ncnc2[nH]ccc(=O)c12)c1c(Cl)c2cccc(NC(=O)C3CCC3)c2c(=O)n1-c1ccccc1 | % | 11 |
| C[C@H](Nc1ncnc2[nH]ccc(=O)c12)c1c(Cl)c2cccc(OCc3ccccc3)c2c(=O)n1-c1ccccc1 | % | 21 |
| C[C@H](Nc1ncnc2[nH]ccc(=O)c12)c1c(Cl)c2cccc(-c3ccc4cnoc4c3)c2c(=O)n1-c1ccccc1 | % | 61 |
| C[C@H](Nc1ncnc2[nH]ccc(=O)c12)c1c(Cl)c2cccc(C(=O)NC3COC3)c2c(=O)n1-c1ccccc1 | % | 96 |
| C[C@H](Nc1ncnc2[nH]ccc(=O)c12)c1c(Cl)c2cccc(C#N)c2c(=O)n1-c1ccccc1 | % | 71 |
| C[C@H](Nc1ncnc2[nH]ccc(=O)c12)c1c(Cl)c2cccc(-c3cnc(OCC(F)(F)F)nc3)c2c(=O)n1-c1ccccc1 | % | 78 |

P = C[C@H](Nc1ncnc2[nH]ccc(=O)c12)c1c(Cl)c2cccc(-c3ccc(C(=O)O)nc3)c2c(=O)n1-c1ccccc1
Q = COc1cc(-c2cccc3c(Cl)c([C@H](C)Nc4ncnc5[nH]ccc(=O)c45)n(-c4ccccc4)c(=O)c23)cnc1OC
Lowest inhibition at 0.01 µM? choose P or Q Refer to your chosen item by its label in the answer.
Q
(Q: 35%, P: 86%)

P = C[C@H](Nc1ncnc2[nH]ccc(=O)c12)c1c(Cl)c2cccc(-c3ccccc3)c2c(=O)n1-c1ccccc1
Q = C[C@H](Nc1ncnc2[nH]ccc(=O)c12)c1cc2cccc(C#N)c2c(=O)n1-c1ccccc1
Sort P and Q by inhibition at 0.01 µM descending and give the first. Lab note: record the label of whichever item you select.
P

1 = C[C@H](Nc1ncnc2[nH]ccc(=O)c12)c1c(Cl)c2cccc(Nc3ccc(F)cc3)c2c(=O)n1-c1ccccc1
2 = C[C@H](Nc1ncnc2[nH]ccc(=O)c12)c1c(Cl)c2cccc(C(N)=O)c2c(=O)n1-c1ccccc1
Lab note: check whether 1 or 2 has the lower measured inhibition at 0.01 µM. Reply briefly: the label of your chosen item.
1
